species on record: Rattus norvegicus; assay: Open TG-GATES - Regimen: Daily Repeat; type: toxicity, organism-based, Sprague-Dawley; set-up: regimen Daily Repeat, gender Male, age 6 weeks; settings: in vivo, po, 100 mg/kg, 72 h, tissue Plasma, route gavage, dose level Low, time 3 day
OBSERVATION_TYPE: CRE (mg/dL)
Write down the numeric answer in mg/dL and omit the unit.

Worked set:
COC1=CC(=O)C[C@@H](C)[C@]12Oc1c(Cl)c(OC)cc(OC)c1C2=O [GRISEOFULVIN]
0.4
CCOc1ccc(NC(=O)CC(C)O)cc1 (stereo not given) [BUCETIN]
0.2
COc1ccc2[nH]c([S+]([O-])Cc3ncc(C)c(OC)c3C)nc2c1 (stereo not given) [OMEPRAZOLE]
0.3
CCOC(=O)CCC(=O)O[C@H]1[C@H](O[C@@H]2[C@@H](C)[C@H](O[C@H]3C[C@@](C)(OC)[C@@H](O)[C@H](C)O3)[C@@H](C)C(=O)O[C@H](CC)[C@@](C)(O)[C@H](O)[C@@H](C)C(=O)[C@H](C)C[C@@]2(C)O)O[C@H](C)C[C@@H]1N(C)C [ERYTHROMYCIN ETHYLSUCCINATE]
0.1

Indicate its recorded CRE; the compound in question is NC(N)=Nc1nc(CSCCC(N)=NS(N)(=O)=O)cs1 [FAMOTIDINE] 0.4
